Give measured z-score for each item. Keep answers brief.
Experiment: S. cerevisiae RM11-1a growth modifiers, primary screen, strain RM11-1a, OD600, basal, 24 h (AID 1177);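 further: cultures grown under basal conditions with no added stressor; test concentration not given here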
Details: OD600, 24 h, higher = more signal, called active from +8 up or from −8 down
Give bare numbers.

molecule="CCc1cc2c(nc1CC)CCN(CCC(C)=NOC(C)CN1CCCCc3nc(C)c(C)cc31)C2 (centres undefined)" experimental_result=1.18
molecule=CO[C@H]1COC(=O)[C@H](CCSC)NC(=O)CC=C[C@@H](C)[C@H](OC)COC(=O)[C@@H](OCc2ccccc2)C=C[C@@H]1C experimental_result=-0.208
molecule=COC(=O)[C@@H]1CC[C@H](C)[C@@H](c2ccc(Br)cc2)N1C[C@@H](O)CN=[N+]=[N-] experimental_result=-0.492

Switching to the query record.
Query string: Output z-score of Cc1cc2c(nc1C)CCCCN2CC(O)CN1CCCc2nc(-c3ccc(Br)cc3)ccc21 (centres undefined)
Result string: 0.919
